Items are presented alongside their recorded IC50.
system: Vero; test: Tested for the cytotoxic effect in vero cell monolayers after incubation for 48 hr at 37 degree Centigrade; format: functional; details: Chlorocebus sabaeus, read-out: ID50 (the source's name)
Provide the reading as a plain figure in µg/mL.

Q. Given Nc1nc(O)c2ncn(C3CC(O)C(F)(CO)C3)c2n1 (stereo not given) , state its recorded IC50.
A. 100

Query compound follows.
Q. Given "Nc1nc(O)c2ncn([C@@H]3C[C@H](CO)[C@@H](O)C3)c2n1" , state its recorded IC50.
A. 300

---

system: Vero; experiment: Tested for the cytotoxic effect in vero cell monolayers after incubation for 48 hr at 37 degree Centigrade; format: functional; settings: Chlorocebus sabaeus, read-out: ID50 (the source's name)
Items are presented alongside their recorded IC50.

Q. Please state recorded IC50 (tested on Vero) of "Nc1nc(O)c2ncn([C@H]3C[C@H](O)[C@@](O)(CO)C3)c2n1"
A. > 900 µg/mL

Q. Please state recorded IC50 (tested on Vero) of Nc1nc2c(ncn2COCCO)c(=O)[nH]1 [ACYCLOVIR]
A. > 300 µg/mL

Q. Please state recorded IC50 (tested on Vero) of "Nc1nc(O)c2ncn([C@H]3C[C@H](O)[C@](O)(CO)C3)c2n1"
A. > 300 µg/mL

Source: ChEMBL document CHEMBL1150003
